Molecular target: catalytic domain of human Bub1 (amino acids 704-1085) (Homo sapiens (Human))
quantity: IC50 (nM)

COc1ccc(Cn2nc(-c3ncc(OC)c(Nc4ccnc(F)c4)n3)c3ccccc32)cc1	230
COc1cnc(-c2nn(Cc3ccc(C#N)cc3F)c3ccccc23)nc1Nc1ccncc1	38
Fc1ccccc1Cn1nc(-c2ncc(OCCc3nnn[nH]3)c(Nc3ccncc3)n2)c2ccccc21	18
COC(=O)c1ccc(Cn2nc(-c3ncc(OC)c(Nc4ccncc4)n3)c3ccccc32)c(Cl)c1	7.1
CCOc1cc(O)c(Cn2nc(-c3ncc(OC)c(Nc4cc(C)nc(C)c4)n3)c3ccccc32)c(F)c1	940
CCCc1ccc(Cn2nc(-c3ncc(OC)c(Nc4ccncc4)n3)c3ccccc32)cc1	15
COc1cnc(-c2nn(Cc3ccc4c(c3)OC(=O)C4)c3ccccc23)nc1Nc1ccncc1	76
CCOc1cc(F)c(Cn2nc(-c3ncc(OCC(=O)O)c(Nc4ccncc4)n3)c3ccccc32)c(F)c1	6.3
COc1cnc(-c2nn(Cc3ccc(C(=O)O)cc3Cl)c3ccccc23)nc1Nc1ccncc1	3700
O=C(OCCO)c1cnccc1Nc1nc(-c2nn(Cc3ccccc3F)c3ccccc23)ncc1OCCO	8.6

I = COc1cnc(-c2nn(Cc3ccc(F)c(OC)c3Cl)c3ccccc23)nc1Nc1ccncc1
II = COc1cnc(-c2nn(Cc3c(F)cccc3OC)c3ccccc23)nc1Nc1ccncc1
III = O=C(O)c1cnccc1Nc1nc(-c2nn(Cc3ccccc3F)c3ccccc23)ncc1O
IV = CCOC(=O)COc1cnc(-c2nn(Cc3c(F)cc(OCC)cc3F)c3ccccc23)nc1Nc1ccncc1
V = CCOc1cc(F)c(Cn2nc(-c3ncc(OCCO)c(Nc4ccncc4)n3)c3ccccc32)c(F)c1 [Example 13-1]
# desc sort on IC50 across 5 compounds In plain terms: list the labels in the order you were asked to. II, III, IV, I, V
(II: 1500 nM, III: 20 nM, IV: 12 nM, I: 8 nM, V: 3.3 nM)

1 = Oc1cnc(-c2nn(Cc3ccc(F)cc3)c3ccccc23)nc1Nc1ccncc1
2 = COc1cnc(-c2nn(Cc3c(F)ccc(OC)c3F)c3ccccc23)nc1N(Cc1c(F)ccc(OC)c1F)c1ccncc1
Between the entries labeled 1 and 2 , whose measured IC50 is lower? Answer by stating the label of the chosen item. 1
(1: 48 nM, 2: 3500 nM)

====

Biological target: catalytic domain of human Bub1 (amino acids 704-1085) (Homo sapiens (Human), UniProt O43683)
Sequence (O43683 704-1085): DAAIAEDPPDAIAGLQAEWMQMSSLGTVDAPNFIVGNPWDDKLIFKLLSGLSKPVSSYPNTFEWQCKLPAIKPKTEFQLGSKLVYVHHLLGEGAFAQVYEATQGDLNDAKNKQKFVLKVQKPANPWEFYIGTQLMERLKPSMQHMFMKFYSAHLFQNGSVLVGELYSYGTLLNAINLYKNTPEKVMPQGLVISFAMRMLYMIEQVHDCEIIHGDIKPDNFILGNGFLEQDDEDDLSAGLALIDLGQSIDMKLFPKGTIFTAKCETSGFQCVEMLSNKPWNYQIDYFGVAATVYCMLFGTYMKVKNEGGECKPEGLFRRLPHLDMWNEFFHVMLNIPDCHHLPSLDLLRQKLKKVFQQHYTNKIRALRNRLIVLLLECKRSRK
quantity: IC50 (nM)

Answered examples (8):
COc1cnc(-c2nn(Cc3c(F)cc(Br)cc3OCC(F)(F)F)c3ccccc23)nc1Nc1ccncc1	16
COc1cnc(-c2nn(Cc3c(Cl)cc(OC(F)(F)F)cc3Cl)c3ccccc23)nc1Nc1ccncc1	16
COc1cnc(-c2nn(Cc3ccc(C#N)cc3)c3ccccc23)nc1Nc1ccncc1	190
Fc1ccccc1Cn1nc(-c2nccc(Nc3ccncc3)n2)c2ccccc21	28
COc1cnc(-c2nn(Cc3ccc(C(C)(C)O)cc3Cl)c3ccccc23)nc1Nc1ccncc1	9.8
COc1cnc(-c2nn(Cc3c(F)cc(OC(F)F)cc3F)c3ccccc23)nc1N(Cc1c(F)cc(OC(F)F)cc1F)c1ccncc1	6900
OC[C@@H](O)COc1cnc(-c2nn(Cc3ccccc3F)c3ccccc23)nc1Nc1ccncc1	4.6
COC(=O)c1ccc(CN(c2ccncc2)c2nc(-c3nn(Cc4ccc(C(=O)OC)cc4Cl)c4ccccc34)ncc2OC)c(Cl)c1	540

I = COc1cnc(-c2nn(Cc3ccc(CC(=O)O)cc3F)c3ccccc23)nc1Nc1ccncc1
II = CCOc1cc(F)c(Cn2nc(-c3ncc(OCC(F)(F)F)c(Nc4ccncc4)n3)c3ccccc32)c(F)c1
Choose between I and II : whose measured IC50 value is numerically larger? Select an item and report its label. I
(I: 3200 nM, II: 10 nM)

Taken from patent US10266548B2.
